Data provenance is ChEMBL document CHEMBL1143785.

# Tested on: Candida albicans
# MEASUREMENT_DESCRIPTION: Antimicrobial activity against Candida albicans after 72 hrs by broth dilution assay
# Type: functional
Calls of active or inactive are those of the source. No cut-off for these calls is given here.
EXPERIMENTAL_READOUT: MIC

Below: 6 compounds and their reported MIC.
Request: What measured MIC goes with OC(Cn1cncn1)(Cn1cncn1)c1ccc(F)cc1F ?
Result: 250 µg/mL

Request: Could you tell me which MIC is on file for O=C1[C@@H](Cl)[C@@H](c2cc(/N=N/c3ccc([N+](=O)[O-])cc3)ccc2O)N1c1ccc(Cl)cc1 ?
Result: 250 µg/mL

Request: Give its MIC value. Item: COc1cc([C@@H]2[C@H](Cl)C(=O)N2NC(=O)CC(=O)Nc2ccc([N+](=O)[O-])cc2)ccc1OC(C)=O
Result: 1000 µg/mL

Request: Requested field: MIC. Item: O=C1[C@@H](Cl)[C@@H](c2cc(/N=N/c3cccc([N+](=O)[O-])c3)ccc2O)N1c1ccccc1
Result: 1000 µg/mL

Request: What value of MIC has been reported for the following compound? O=C1[C@@H](Cl)[C@@H](c2cc(/N=N/c3ccc([N+](=O)[O-])cc3)ccc2O)N1c1ccccc1
Result: 2000 µg/mL

Request: Any idea what its MIC is? The compound is COc1cc([C@@H]2[C@H](Cl)C(=O)N2NC(=O)CC(=O)Nc2ccccc2Cl)ccc1OC(C)=O
Result: 500 µg/mL

Required: MIC, one value per compound below.
1. COc1cc([C@@H]2[C@H](Cl)C(=O)N2NC(=O)CC(=O)Nc2ccccc2)ccc1OC(C)=O
2. O=C1[C@@H](Cl)[C@@H](c2cc(/N=N/c3cccc([N+](=O)[O-])c3)ccc2O)N1c1ccc(Cl)cc1
3. COc1cc([C@@H]2[C@H](Cl)C(=O)N2NC(=O)CC(=O)Nc2ccccc2[N+](=O)[O-])ccc1OC(C)=O

Result:
1. 1000 µg/mL
2. 125 µg/mL
3. 2000 µg/mL

For the 7 compounds below, give their MIC values.
1. COc1cc([C@@H]2[C@H](Cl)C(=O)N2NC(=O)CC(=O)Nc2ccc(Cl)cc2)ccc1OC(C)=O
2. O=C(N[C@H](CO)[C@H](O)c1ccc([N+](=O)[O-])cc1)C(Cl)Cl
3. COc1cc([C@@H]2[C@H](Cl)C(=O)N2NC(=O)CC(=O)Nc2cccc([N+](=O)[O-])c2)ccc1OC(C)=O
4. COc1cc([C@@H]2[C@H](Cl)C(=O)N2NC(=O)CC(=O)Nc2cccc(Cl)c2)ccc1OC(C)=O
5. O=C1[C@@H](Cl)[C@@H](c2cc(/N=N/c3ccc([N+](=O)[O-])cc3)ccc2O)N1c1ccc(Br)cc1
6. O=C1[C@@H](Cl)[C@@H](c2cc(/N=N/c3cccc([N+](=O)[O-])c3)ccc2O)N1c1ccc(Br)cc1
7. O=C1[C@@H](Cl)[C@@H](c2cc(/N=N/c3cccc([N+](=O)[O-])c3)ccc2O)N1c1ccc(F)cc1

Result:
["31.2 µg/mL", "inactive", "62.5 µg/mL", "125 µg/mL", "4000 µg/mL", "inactive", "62.5 µg/mL"]

Request: What MIC value was documented for this compound, O=C1[C@@H](Cl)[C@@H](c2cc(/N=N/c3ccc([N+](=O)[O-])cc3)ccc2O)N1c1ccc(F)cc1 ?
Result: 2000 µg/mL
